Read-out: Plasminogen activator inhibitor-1 (PAI1), SERPINE1 (gene 5054)
Assay: BSK_BE3C_PAI1: BioMAP Diversity Plus: BE3C Assay for Plasminogen activator inhibitor-1 (PAI1) Biomarker Activity (AID 2283037)
Settings: primary human bronchial epithelial cells; actives raise or lower the signal
Calls of active or inactive are those of the source. Rule for the calls: active = hit-call score of the fitted dose curve at least 0.9, where 1 is the maximum; inactive = score below 0.9.
Outcome codes: true (1) for active, false (0) for inactive

>>> print(df.to_string())
                                    compound  category_label
 0  CC(C1CC1)C(O)(Cn1cncn1)c1ccc(Cl)cc1 (stereo not drawn)       false (0)
 1                                 N#CSCSC#N       false (0)
 2                CC(=NC#N)N(C)Cc1ccc(Cl)nc1       false (0)
 3  C=C(C)[C@H]1Cc2c(ccc3c2O[C@@H]2COc4cc(OC)c(OC)cc4[C@@H]2C3=O)O1       false (0)
 4  CC(Oc1cccc(Cl)c1)C(=O)O (stereo not drawn)       false (0)
 5                CSc1nc(NC(C)C)nc(NC(C)C)n1       false (0)
 6   C[Si](Cn1cncn1)(c1ccc(F)cc1)c1ccc(F)cc1       false (0)
 7                  CCCCOC(=O)c1ccccc1C(=O)O       false (0)
 8                      Nc1nc(N)nc(NC2CC2)n1       false (0)
 9  CCOC(=O)COc1cc(-c2nn(C)c(OC(F)F)c2Cl)c(F)cc1Cl       false (0)
10        CC1(C(=O)Nc2ccc(O)c(Cl)c2Cl)CCCCC1       false (0)
11  Cc1nn(-c2cc(NS(C)(=O)=O)c(Cl)cc2Cl)c(=O)n1C(F)F       false (0)
12  COc1cccc(C(=O)NN(C(=O)c2cc(C)cc(C)c2)C(C)(C)C)c1C       false (0)
13                 CSc1nnc(C(C)(C)C)c(=O)n1N       false (0)
14       COc1cc(OC)nc(Sc2cccc(Cl)c2C(=O)O)n1       false (0)
15             CN(C)C(=O)Nc1cccc(C(F)(F)F)c1       false (0)
16  CCCSP(=O)(OCC)Oc1ccc(Br)cc1Cl (stereo not drawn)       false (0)
17          CCOP(=S)(OCC)Oc1cc(C)nc(C(C)C)n1       false (0)
18                       CN(C)NC(=O)CCC(=O)O       false (0)
19  CCC(CC)Nc1c([N+](=O)[O-])cc(C)c(C)c1[N+](=O)[O-]       false (0)
20         CC(C)N(C(=O)SCC(Cl)=C(Cl)Cl)C(C)C       false (0)
21  COc1ccc(C(=CC(=O)N2CCOCC2)c2ccc(Cl)cc2)cc1OC       false (0)
22             Nc1c(Cl)cc([N+](=O)[O-])cc1Cl       false (0)
23                    CCCCSP(=O)(SCCCC)SCCCC       false (0)
24  CC(C)[C@H](C(=O)O[C@H](C#N)c1cccc(Oc2ccccc2)c1)c1ccc(Cl)cc1       false (0)
25  CCOP(=O)(SC(C)CC)N1CCSC1=O (stereo not drawn)       false (0)
26  FC(F)C(F)(F)OCC(Cn1cncn1)c1ccc(Cl)cc1Cl (stereo not drawn)       false (0)
27  CCOC(=O)CC(SP(=O)(OC)OC)C(=O)OCC (stereo not drawn)       false (0)
28                 CNC(=O)ON=C(SC)C(=O)N(C)C       false (0)
29                  CCC(=O)Nc1ccc(Cl)c(Cl)c1       false (0)
30     CN1COCN(Cc2cnc(Cl)s2)C1=N[N+](=O)[O-]       false (0)
31    Cc1ccn2nc(S(=O)(=O)Nc3c(F)cccc3F)nc2n1       false (0)
32               CNC(=O)Oc1cccc2c1OC(C)(C)O2       false (0)
33  CON=C(C(=O)OC)c1ccccc1CON=C(C)c1cccc(C(F)(F)F)c1        true (1)
34  CCC(=NOC/C=C/Cl)C1=C(O)CC(C2CCOCC2)CC1=O (stereo not drawn)       false (0)
35     COP(=O)(NC(C)=O)SC (stereo not drawn)       false (0)
36                        CCCSP(=O)(OCC)SCCC       false (0)
37          C#CC(C)(C)NC(=O)c1cc(Cl)cc(Cl)c1       false (0)

###

Experiment: CEETOX_H295R_OHPROG: CeeTox H295R High-throughput Steroidogenesis Assay for OH-Progesterone (OHPROG) (AID 2283435)
Details: actives raise or lower the signal
Calls of active or inactive are those of the source. The calls were made as follows: active = hit-call score of the fitted dose curve at least 0.9, where 1 is the maximum; inactive = score below 0.9.
Outcome codes: yes for active, no for inactive

>>> print(df.to_string())
                                   molecule  category_label
0  COc1ccc(C(=CC(=O)N2CCOCC2)c2ccc(Cl)cc2)cc1OC              no
1                        CCCSP(=O)(OCC)SCCC              no
2        CC1(C(=O)Nc2ccc(O)c(Cl)c2Cl)CCCCC1             yes
3                       CN(C)NC(=O)CCC(=O)O              no
4  CC(C1CC1)C(O)(Cn1cncn1)c1ccc(Cl)cc1 (centres undefined)             yes
5                 CSc1nnc(C(C)(C)C)c(=O)n1N              no
6    COP(=O)(NC(C)=O)SC (centres undefined)              no
7   CCOP(=S)(OCC)Oc1ccc2c(C)c(Cl)c(=O)oc2c1             yes
8  CC(COc1ccc(Oc2ccccc2)cc1)Oc1ccccn1 (centres undefined)              no

###

Read-out: Monocyte Chemoattractant Protein-1 (MCP1), CCL2 (gene 6347)
Assay: BSK_SAg_MCP1: BioMAP Diversity Plus: SAg Assay for Monocyte Chemoattractant Protein-1 (MCP1) Biomarker Activity (AID 2283090)
Settings: primary human HUVEC with PBMC; actives raise or lower the signal
Experimental: BSK_SAg is a cell-based, multiplexed-readout assay that uses umbilical vein endothelium and peripheral blood mononuclear cells, a human vascular primary cell co-culture, with measurements taken at 24 hours after chemical dosing in a 96-well plate.BSK_SAg_MCP1 is an assay component measured in the BSK_SAg assay. It measures MCP-1 antibody related to regulation of gene expression using ELISA technology.Data from the assay component BSK_SAg_MCP1 was analyzed into 1 assay endpoint. […]
Active and inactive are the calls of the source. The calls were made as follows: active = hit-call score of the fitted dose curve at least 0.9, where 1 is the maximum; inactive = score below 0.9.
Outcome codes: 1.0 = active, 0.0 = inactive

COMPOUND	CATEGORY_LABEL
CC(=NC#N)N(C)Cc1ccc(Cl)nc1	0.0
CC(C1CC1)C(O)(Cn1cncn1)c1ccc(Cl)cc1 (stereo unspecified)	0.0
CNc1cnn(-c2cccc(C(F)(F)F)c2)c(=O)c1Cl	0.0
CCCOc1nn(C(=O)NS(=O)(=O)c2ccccc2C(=O)OC)c(=O)n1C	0.0
C=C(C)[C@H]1Cc2c(ccc3c2O[C@@H]2COc4cc(OC)c(OC)cc4[C@@H]2C3=O)O1	1.0
CC(C)[C@H](C(=O)O[C@H](C#N)c1cccc(Oc2ccccc2)c1)c1ccc(Cl)cc1	0.0
CNC(=O)Oc1cccc2c1OC(C)(C)O2	0.0
C[N+]1(C)CCCCC1	0.0
CN1COCN(Cc2cnc(Cl)s2)C1=N[N+](=O)[O-]	0.0
CC(Oc1cccc(Cl)c1)C(=O)O (stereo unspecified)	0.0
CCOP(=S)(OCC)Oc1ccc2c(C)c(Cl)c(=O)oc2c1	0.0
CNC(=O)ON=C(SC)C(=O)N(C)C	0.0
CSc1nc(NC(C)C)nc(NC(C)C)n1	1.0
CCCCSP(=O)(SCCCC)SCCCC	1.0
CSc1nnc(C(C)(C)C)c(=O)n1N	0.0
CN(C)NC(=O)CCC(=O)O	0.0
CCOP(=S)(Oc1cnc(C(C)(C)C)nc1)OC(C)C (stereo unspecified)	1.0
CC(COc1ccc(Oc2ccccc2)cc1)Oc1ccccn1 (stereo unspecified)	0.0
CC[C@H](C)[C@H]1O[C@]2(C=C[C@@H]1C)C[C@@H]1C[C@@H](C/C=C(\C)[C@@H](O[C@H]3C[C@H](OC)[C@@H](O[C@H]4C[C@H](OC)[C@@H](NC)[C@H](C)O4)[C@H](C)O3)[C@@H](C)/C=C/C=C3\CO[C@@H]4[C@H](O)C(C)=C[C@@H](C(=O)O1)[C@]34O)O2	1.0
Cc1cc(C2CC2)nc(Nc2ccccc2)n1	0.0
CCCOCC(=Nc1ccc(Cl)cc1C(F)(F)F)n1ccnc1	1.0
CCOP(=O)(OCC)Oc1cc(C)nc(C(C)C)n1	0.0
CCc1cccc(C)c1N(C(=O)CCl)C(C)COC (stereo unspecified)	0.0
CON=C(C(=O)OC)c1ccccc1CON=C(C)c1cccc(C(F)(F)F)c1	1.0
CCOP(=S)(OCC)Oc1ccc([N+](=O)[O-])cc1	0.0
CC(C)=CC1C(C(=O)OCN2C(=O)C3=C(CCCC3)C2=O)C1(C)C (stereo unspecified)	1.0
S=C1NCCN1	0.0
CC1=NNC(=O)N(/N=C/c2cccnc2)C1	0.0
CCNc1nc(Cl)nc(NC(C)(C)C#N)n1	0.0
CCOC(=O)CC(SP(=O)(OC)OC)C(=O)OCC (stereo unspecified)	0.0
COc1ccc(C(=CC(=O)N2CCOCC2)c2ccc(Cl)cc2)cc1OC	1.0
CCOP(=O)(NC(C)C)Oc1ccc(SC)c(C)c1 (stereo unspecified)	0.0
CCOC(=O)COc1cc(-c2nn(C)c(OC(F)F)c2Cl)c(F)cc1Cl	0.0
CCc1cnc(C2=NC(C)(C(C)C)C(=O)N2)c(C(=O)O)c1 (stereo unspecified)	0.0
CC(C)N(C(=O)SCC(Cl)=C(Cl)Cl)C(C)C	1.0
COP(=O)(OC)SCn1c(=O)oc2cc(Cl)cnc21	0.0
Cc1nn(-c2cc(NS(C)(=O)=O)c(Cl)cc2Cl)c(=O)n1C(F)F	0.0
CCC(=O)Nc1ccc(Cl)c(Cl)c1	0.0
CCC(CC)Nc1c([N+](=O)[O-])cc(C)c(C)c1[N+](=O)[O-]	1.0
Nc1nc(N)nc(NC2CC2)n1	0.0
CCOP(=S)(OCC)Oc1cc(C)nc(C(C)C)n1	0.0
